- subject-of-test: delF508-CFTR (Homo sapiens, UniProt P13569, DEL508-508)
- Construct: endogenous in cells; host or cells: CFBE41o- human CF bronchial epithelial cells (delF508 homozygous)
- Sequence (P13569 with tags, fused parts or gaps DEL508-508): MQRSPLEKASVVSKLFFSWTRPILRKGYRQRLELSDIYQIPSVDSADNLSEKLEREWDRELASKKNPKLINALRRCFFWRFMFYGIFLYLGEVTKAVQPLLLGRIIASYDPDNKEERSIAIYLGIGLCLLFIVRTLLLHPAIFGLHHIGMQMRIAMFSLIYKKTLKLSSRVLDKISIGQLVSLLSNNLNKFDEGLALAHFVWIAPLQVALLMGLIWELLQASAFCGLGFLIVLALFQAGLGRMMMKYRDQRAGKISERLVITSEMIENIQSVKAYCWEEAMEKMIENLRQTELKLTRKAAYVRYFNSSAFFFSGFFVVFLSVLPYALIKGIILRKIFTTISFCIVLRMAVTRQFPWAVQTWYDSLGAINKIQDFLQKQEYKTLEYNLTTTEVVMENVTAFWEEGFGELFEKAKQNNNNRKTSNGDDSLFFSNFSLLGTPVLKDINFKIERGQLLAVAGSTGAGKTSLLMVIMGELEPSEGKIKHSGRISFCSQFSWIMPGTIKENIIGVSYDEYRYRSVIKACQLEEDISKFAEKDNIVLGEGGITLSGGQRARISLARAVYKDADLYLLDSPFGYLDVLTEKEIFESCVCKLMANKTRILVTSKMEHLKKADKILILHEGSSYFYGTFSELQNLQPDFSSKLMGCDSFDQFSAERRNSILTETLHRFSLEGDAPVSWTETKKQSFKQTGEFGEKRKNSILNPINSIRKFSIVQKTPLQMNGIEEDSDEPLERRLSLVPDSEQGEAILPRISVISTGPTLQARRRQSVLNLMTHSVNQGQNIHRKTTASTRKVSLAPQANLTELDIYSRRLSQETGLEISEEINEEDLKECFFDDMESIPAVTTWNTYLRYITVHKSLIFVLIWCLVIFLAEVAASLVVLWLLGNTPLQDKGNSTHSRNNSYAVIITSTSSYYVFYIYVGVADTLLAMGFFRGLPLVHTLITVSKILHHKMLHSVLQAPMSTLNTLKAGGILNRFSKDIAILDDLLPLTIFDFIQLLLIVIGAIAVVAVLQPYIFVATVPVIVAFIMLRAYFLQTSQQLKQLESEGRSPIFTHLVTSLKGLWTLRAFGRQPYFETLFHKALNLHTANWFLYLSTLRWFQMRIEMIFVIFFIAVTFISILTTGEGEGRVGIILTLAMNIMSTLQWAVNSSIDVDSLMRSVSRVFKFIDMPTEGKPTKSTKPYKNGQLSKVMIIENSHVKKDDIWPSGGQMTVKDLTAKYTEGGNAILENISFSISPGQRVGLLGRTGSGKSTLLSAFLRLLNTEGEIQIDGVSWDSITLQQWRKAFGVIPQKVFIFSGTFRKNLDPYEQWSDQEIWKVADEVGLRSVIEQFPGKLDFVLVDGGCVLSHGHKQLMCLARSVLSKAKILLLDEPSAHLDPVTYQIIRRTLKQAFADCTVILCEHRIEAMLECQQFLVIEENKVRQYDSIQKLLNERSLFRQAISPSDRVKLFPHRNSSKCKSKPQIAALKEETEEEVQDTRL
- method-description: SPQ halide-sensitive fluorescence dye assay for rescue of halide efflux (8-point concentration-response)
- Assay type: cell-based
- conditions-used: Trial 2; read-out: SPQ EC50
- Description: The method of profiling can include detecting the rescue of halide efflux from a cell. The step of detecting a rescue of halide efflux from the cell can be monitored using the halide quenched dye 6-methoxy-N-(3-sulfopropyl)-quinolinium (SPQ, Molecular Probes Inc., Eugene, Oreg.). In this method, cells are treated with a compound as described herein for a period of time (e.g., 48 hours). The rescue or correction of halide efflux is then detected using the SPQ assay with the halide dye. […]
experimental-readout: EC50 (µM)
One number for each entry, in µM.

In: EC50 for CCn1c(=O)c2c(nc3oc(C(C)(C)C)cn32)n(C)c1=O ?
Out: 12.7
